Tested on: CCRF-CEM
Test: Cytotoxicity against human CEM cells after 24 hrs by MTT assay
Assay type: functional, cell-based
ATTRIBUTE_MEASURED: IC50

> print(dat)
                           substance.smiles  value.reported
1      O=C(/C=C/c1cccc(Cl)c1)c1ccc2ccccc2c1           11 µM
2  O=C(/C=C/c1cccc([N+](=O)[O-])c1)c1ccc2ccccc2c1           11 µM

Shift focus to the following entry.
Fill blank: measured IC50 of the compound O=C(/C=C/c1ccccc1)c1ccc2ccccc2c1 is ____.
12 µM
